Biological target: DNA (cytosine-5)-methyltransferase 1 (Homo sapiens)
Sequence (P26358 whole entry): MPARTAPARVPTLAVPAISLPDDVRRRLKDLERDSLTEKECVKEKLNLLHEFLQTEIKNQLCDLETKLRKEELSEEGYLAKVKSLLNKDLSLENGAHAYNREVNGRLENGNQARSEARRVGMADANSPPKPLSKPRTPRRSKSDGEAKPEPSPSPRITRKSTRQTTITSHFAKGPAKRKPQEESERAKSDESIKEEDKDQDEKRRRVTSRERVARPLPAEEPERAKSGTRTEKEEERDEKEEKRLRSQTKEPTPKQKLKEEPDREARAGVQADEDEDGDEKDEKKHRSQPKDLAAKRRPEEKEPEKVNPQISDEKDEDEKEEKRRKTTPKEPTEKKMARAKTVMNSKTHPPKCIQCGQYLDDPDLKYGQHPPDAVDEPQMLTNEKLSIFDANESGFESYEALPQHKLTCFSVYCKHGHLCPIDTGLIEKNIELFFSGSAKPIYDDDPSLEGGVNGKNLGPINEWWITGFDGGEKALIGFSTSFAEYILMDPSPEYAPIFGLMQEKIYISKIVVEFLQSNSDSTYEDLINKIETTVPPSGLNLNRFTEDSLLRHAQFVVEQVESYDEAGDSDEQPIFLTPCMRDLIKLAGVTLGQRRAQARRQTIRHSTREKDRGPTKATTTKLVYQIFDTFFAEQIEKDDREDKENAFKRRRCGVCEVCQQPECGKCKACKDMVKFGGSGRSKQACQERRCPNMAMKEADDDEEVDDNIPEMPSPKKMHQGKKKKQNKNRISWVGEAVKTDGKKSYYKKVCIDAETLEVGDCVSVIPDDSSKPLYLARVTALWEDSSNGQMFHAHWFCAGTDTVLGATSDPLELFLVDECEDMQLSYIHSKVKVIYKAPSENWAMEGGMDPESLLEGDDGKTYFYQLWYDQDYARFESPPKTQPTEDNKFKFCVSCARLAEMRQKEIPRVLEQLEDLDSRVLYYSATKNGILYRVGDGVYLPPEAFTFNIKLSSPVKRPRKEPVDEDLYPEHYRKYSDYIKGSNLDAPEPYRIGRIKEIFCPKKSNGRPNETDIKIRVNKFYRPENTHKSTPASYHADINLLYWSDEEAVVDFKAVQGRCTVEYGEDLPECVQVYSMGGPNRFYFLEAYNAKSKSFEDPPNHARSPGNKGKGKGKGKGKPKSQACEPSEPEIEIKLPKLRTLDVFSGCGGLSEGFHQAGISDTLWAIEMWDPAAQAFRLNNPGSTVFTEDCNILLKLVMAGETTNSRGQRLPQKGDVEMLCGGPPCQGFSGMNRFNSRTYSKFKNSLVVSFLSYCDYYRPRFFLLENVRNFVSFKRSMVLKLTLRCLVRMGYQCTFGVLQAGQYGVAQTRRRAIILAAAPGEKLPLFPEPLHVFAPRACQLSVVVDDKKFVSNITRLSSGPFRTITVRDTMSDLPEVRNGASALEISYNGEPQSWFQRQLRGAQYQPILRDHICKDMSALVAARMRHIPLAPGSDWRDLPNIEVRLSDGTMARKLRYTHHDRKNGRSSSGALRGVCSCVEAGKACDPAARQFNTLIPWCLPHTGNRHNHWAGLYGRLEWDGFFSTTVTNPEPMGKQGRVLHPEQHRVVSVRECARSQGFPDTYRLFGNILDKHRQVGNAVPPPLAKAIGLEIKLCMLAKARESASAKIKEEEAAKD
Test: Inhibition of human recombinant DNMT1 expressed in […] assessed as inhibition of tritiated methyl incorporation from [3H]-labeled AdoMet into hemimethylated DNA duplex at 500 uM after 2 hrs by liquid scintillation counting analysis relative to control
Type: cell-based
Calls of active or inactive are those of the source. No cut-off for these calls is given here.

# molecule, inhibition
rows = [
    ("O=C(O)[C@@H](Cc1c[nH]c2ccccc12)CN1C(=O)c2ccccc2C1=O", "inactive"),
    ("O=C(O)[C@H](Cc1cc(=O)[nH]c2ccccc12)N1C(=O)c2ccccc2C1=O", "inactive"),
    ("O=C(O)C[C@H](Cc1c[nH]c2ccccc12)N1C(=O)c2ccccc2C1=O", "inactive"),
    ("O=C(O)C1C(Cc2c[nH]c3ccccc23)CCN1C(=O)c1ccccc1 (centres undefined)", "50%"),
]
